# assay method text: Aqueous solubility at pH 4
# Assay type: physicochemical
Collected solubility values appear next to each entry.
Write down the numeric answer in µM and omit the unit.

Use the examples below as a reference point.
>>> df
                            chemical_string  measurement_units  result
0  c1ccc2oc(Nc3ccc(CCNc4ncnc5ccsc45)cc3)nc2c1                 µM     200
1  Clc1cnc2nc(Nc3ccc(CCNc4ncnc5ccsc45)cc3)[nH]c2c1                 µM     100

Report solubility for c1ccc2sc(Nc3ccc(CCNc4ncnc5ccsc45)cc3)nc2c1
100

----------
# assay method text: Half life in mouse at 5 mg/kg, iv
# Type: ADME, organism-based
# Set-up: dose 5 mg/kg, route intravenous
# recorded conditions: in vivo
value type: half-life (h)
Write down the numeric answer in h and omit the unit.

>>> df
                                   compound  result
0  FC(F)(F)c1ccc2[nH]c(Nc3ccc(CCNc4ncnc5ccsc45)cc3)nc2c1    0.61
1  FC(F)(F)c1cnc2nc(Nc3ccc(CCNc4ncnc5ccsc45)cc3)[nH]c2c1     1.5
2  CS(=O)(=O)O.O=C(Nc1cccc(Cl)c1)Nc1ncc(CCNc2ncnc3ccsc23)s1 [SNS-314 MESYLATE]     1.4

Turning to the following compound.
Report half-life for Clc1ccc2[nH]c(Nc3ccc(CCNc4ncnc5ccsc45)cc3)nc2c1
0.45

----------
# assay method text: Aqueous solubility at pH 4
# Assay type: physicochemical
value type: solubility (µM)
Write down the numeric answer in µM and omit the unit.

Use the examples below as a reference point.
>>> df
                                   compound  value_type  measurement_units  result
0  O=C(Nc1ccccc1)Nc1ncc(CCNc2ncnc3ccsc23)s1  solubility                 µM     100
1  CS(=O)(=O)O.O=C(Nc1cccc(Cl)c1)Nc1ncc(CCNc2ncnc3ccsc23)s1 [SNS-314 MESYLATE]  solubility                 µM      50
2  FC(F)(F)c1ccc2nc(Nc3ccc(CCNc4ncnc5ccsc45)nc3)[nH]c2c1  solubility                 µM     400
3  FC(F)(F)c1ccc2[nH]c(Nc3ccc(CCNc4ncnc5ccsc45)cc3)nc2c1  solubility                 µM     750
4  c1ccc2[nH]c(Nc3ncc(CCNc4ncnc5ccsc45)s3)nc2c1  solubility                 µM     400
5  Fc1cc(CCNc2ncnc3ccsc23)ccc1Nc1nc2cc(C(F)(F)F)ccc2[nH]1  solubility                 µM     750

Report solubility for FC(F)(F)c1cnc2nc(Nc3ccc(CCNc4ncnc5ccsc45)cc3)[nH]c2c1
100

----------
Collected pIC50 values appear next to each entry.
# tested target: Aurora kinase A (Homo sapiens, UniProt O14965)
# Sequence (O14965 whole entry): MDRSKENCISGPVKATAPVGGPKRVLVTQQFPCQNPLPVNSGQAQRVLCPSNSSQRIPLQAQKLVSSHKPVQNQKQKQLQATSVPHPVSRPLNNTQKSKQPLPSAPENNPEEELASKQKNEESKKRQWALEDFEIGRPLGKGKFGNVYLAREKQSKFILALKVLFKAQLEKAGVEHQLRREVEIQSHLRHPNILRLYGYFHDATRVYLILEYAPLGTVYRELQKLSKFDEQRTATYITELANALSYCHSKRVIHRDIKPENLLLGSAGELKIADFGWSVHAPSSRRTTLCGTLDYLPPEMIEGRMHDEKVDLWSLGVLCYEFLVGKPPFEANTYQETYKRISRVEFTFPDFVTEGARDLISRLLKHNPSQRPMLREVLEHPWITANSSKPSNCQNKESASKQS
In plain terms, pIC50 is the concentration in mol/L turned into minus its base-10 logarithm.

Use the examples below as a reference point.
                            chemical_string  value_type  result
0  FC(F)(F)c1cnc2nc(Nc3ccc(CCNc4ncnc5ccsc45)cc3)[nH]c2c1       pIC50    7.77
1  Fc1cc(CCNc2ncnc3ccsc23)ccc1Nc1nc2cc(C(F)(F)F)ccc2[nH]1       pIC50    7.19
2  FC(F)(F)c1ccc2[nH]c(Nc3ccc(CCNc4ncnc5ccsc45)cc3)nc2c1       pIC50    7.40

Report pIC50 for Clc1ccc2[nH]c(Nc3ccc(CCNc4ncnc5ccsc45)cc3)nc2c1
7.55
